# Test system: KM12 colon
# assay.notes: NCI tumour cell line growth inhibition, 48 h

{"compound": "CC(=O)N1N=C(c2ccc(Nc3ccnc4cc(Cl)ccc34)cc2)CC1c1ccc(Cl)cc1 (centres undefined)", "GI50": "6.59 µM"}
{"compound": "COc1cccc(-c2nn(-c3ccccc3)cc2-c2ccnc(NCCNC(=O)Nc3cccc(C(F)(F)F)c3)c2)c1", "GI50": "2.08 µM"}
{"compound": "N[C@@H]1C(=O)N2C(C(=O)OC(c3ccccc3)c3ccccc3)=C(CCl)CS[C@H]12", "GI50": "38.1 µM"}
{"compound": "Nc1nc(N)c(C=Nc2ccc(Br)cc2)c(Nc2ccc(Br)cc2)n1", "GI50": "4.22 µM"}
